STUDY_SYSTEM: Glutamate receptor ionotropic, kainate 1 (Rattus norvegicus)
METHOD_DESCRIPTION: Activity at rat cloned iGluR5 expressed in human HEK293 cells by calcium imaging assay relative to L-glutamate
Format: cell-based
Parameters: concentration or dose not given beside the values
Answer each item with its documented Activity.
Report the figure in % without appending any unit label.

# Activity lookup, item N[C@H](C(=O)O)c1cc(O)no1
8

# Activity lookup, item N[C@@H](C(=O)O)[C@H]1CC(O)=NO1
10

# Activity lookup, item N[C@H](C(=O)O)[C@@H]1CC(O)=NO1
91

# Activity lookup, item N[C@@H](C(=O)O)[C@@H]1CC(O)=NO1
8

# Activity lookup, item N[C@H](C(=O)O)[C@H]1CC(O)=NO1
12
